# Test system: PKAC-alpha
# Construct: gene PRKACA
# TEST PARAMETERS: concentration: 1 μM,replicates: in singlicate; n = 1;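 further: KINOMEscan kinase panel screen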
Reported values of %Inh for individual entries
ENDPOINT: %Inh (%)

[[record]]
compound = "CCN(CC)CCCCNc1ncc2cc(-c3c(Cl)cccc3Cl)c(NC(=O)NC(C)(C)C)nc2n1"
endpoint = "%Inh"
numeric_value = 11

[[record]]
compound = "Cc1occc1-c1nc(N)c(OC[C@@H](N)Cc2c[nH]c3ccccc23)cc1-c1cc2c(C)n[nH]c2cn1 [GSK1660450]"
endpoint = "%Inh"
numeric_value = 99.9

[[record]]
compound = "C[C@@H](Oc1cc(-c2cnn(C3CCNCC3)c2)cnc1N)c1c(Cl)ccc(F)c1Cl"
endpoint = "%Inh"
numeric_value = 0

[[record]]
compound = "Cc1cc(C(=O)Nc2ccc(Oc3ccc4nc(NC(=O)C5CC5)cn4n3)cc2)nn1-c1ccccc1"
endpoint = "%Inh"
numeric_value = 0

[[record]]
compound = "Cl.Cl.NC[C@H](CC1CCCCC1)NC(=O)c1cc(Br)c(-c2ccnc3[nH]ccc23)s1 [GSK1581427]"
endpoint = "%Inh"
numeric_value = 99.5

[[record]]
compound = "C[C@H]1Oc2cc(cnc2N)-c2c(nn(C)c2C#N)CN(C)C(=O)c2ccc(F)cc21"
endpoint = "%Inh"
numeric_value = 18

[[record]]
compound = "CC(C)N1C(=O)Cc2cc(Nc3ncc(C(F)(F)F)c(NCc4cccc(S(C)(=O)=O)c4)n3)ccc21"
endpoint = "%Inh"
numeric_value = 0


----------
Reported values of %Inh for individual entries
# System: PLK3
# TEST PARAMETERS: concentration: 1 μM,replicates: in singlicate; n = 1
ENDPOINT: %Inh (%)

[[record]]
compound = "Cl.Cl.Nc1nc(-c2ccc3c(N)n[nH]c3c2)cc(N2CCCC(NC(=O)c3ccccc3)C2)n1 (stereo not shown)"
numeric_value = 1

[[record]]
compound = "CNC(=O)c1ccccc1Sc1ccc2c(/C=C/c3ccccn3)n[nH]c2c1"
numeric_value = 34

[[record]]
compound = "Cc1cc2cn[nH]c2cc1-c1cccc2c(N)c(C(N)=O)nnc12"
numeric_value = 0

[[record]]
compound = "Cc1ccc2c(-c3ccncc3)c(-c3ccc(F)cc3)nn2c1.Cl"
numeric_value = 0

[[record]]
compound = "O=C(NCCNc1ccnc(NCc2ccc(F)cc2)n1)c1cc2ccccc2s1"
numeric_value = 0

[[record]]
compound = "CCN(CC)CCCCNc1ncc2cc(-c3c(Cl)cccc3Cl)c(NC(=O)NC(C)(C)C)nc2n1"
numeric_value = 7

[[record]]
compound = "CCn1c(-c2nonc2N)nc2c(C#CC(C)(C)O)nc(OCCN)cc21.Cl.Cl"
numeric_value = 0

[[record]]
compound = "O=C(NCCCN1CCOC1=O)c1cnc(NCc2cc(Cl)ccc2Cl)nc1NC1CCCC1"
numeric_value = 4

[[record]]
compound = "CCN(CC)CCOc1ccc(Nc2ncc3cc(-c4c(Cl)cccc4Cl)c(=O)n(C)c3n2)cc1"
numeric_value = 52

[[record]]
compound = "COc1ccc(C[C@@H](CN)NC(=O)c2cc(Br)c(-c3ccnc4[nH]ccc34)s2)cc1.Cl.Cl"
numeric_value = 27

[[record]]
compound = "Cc1ccc(-n2nc(C(C)(C)C)cc2NC(=O)Nc2ccc(OCCN3CCOCC3)c3ccccc23)cc1"
numeric_value = 0

[[record]]
compound = "CN(C)CCOc1ccc(-c2cc(-c3c[nH]nc3-c3ccccn3)ccn2)cc1"
numeric_value = 0

[[record]]
compound = "C[C@@H](Oc1cc(-c2cnn(C3CCNCC3)c2)cnc1N)c1c(Cl)ccc(F)c1Cl"
numeric_value = 17


All values here come from paper PMC5540273.
